System: HeLa Kyoto
Experiment: solubility in G1/S (NP-40 vs SDS abundance) (log2 ratio); higher = more soluble
Conditions: cell cycle stage: G1/S
I'd appreciate it if you could supply solubility in G1/S (log2) values for the items below.
Kindly provide the number alone.

# input sequence: MAALGHLAGEAAAAPGPGTPCASRGARLPGPVSSARNPSTVCLCPEQPTCSNADSRAHPLGDEGGTASKKQKNKKKTRNRASVANGGEKASEKLAPEEVPLSAEAQAQQLAQELAWCVEQLELGLKRQKPTPKQKEQAIGAIRTLRSKRTPLPRKRQLMHSLFGDYRAQMEAEWREALRALRAAAYSAQVQPVDGATRKKSQRVCRPRSIWRAKATLDMPDEEFRFNFF [C8ORF33] ; wanted: its solubility in G1/S (log2)
0.306

# input sequence: MEVPPPAPRSFLCRALCLFPRVFAAEAVTADSEVLEERQKRLPYVPEPYYPESGWDRLRELFGKDEQQRISKDLANICKTAATAGIIGWVYGGIPAFIHAKQQYIEQSQAEIYHNRFDAVQSAHRAATRGFIRYGWRWGWRTAVFVTIFNTVNTSLNVYRNKDALSHFVIAGAVTGSLFRINVGLRGLVAGGIIGALLGTPVGGLLMAFQKYSGETVQERKQKDRKALHELKLEEWKGRLQVTEHLPEKIESSLQEDEPENDAKKIEALLNLPRNPSVIDKQDKD [TIMMDC1] ; wanted: its solubility in G1/S (log2)
-0.03

----------
Test system: HeLa Kyoto
Experiment: melting temperature (median over replicates), in situ; higher = more thermally stable
Conditions: cell cycle stage: G1/S
Observation type: melting temperature (°C)
Answer with a number only, understood to be in °C.

Give melting temperature (HeLa Kyoto) of the following sequence: MANRGPAYGLSREVQQKIEKQYDADLEQILIQWITTQCRKDVGRPQPGRENFQNWLKDGTVLCELINALYPEGQAPVKKIQASTMAFKQMEQISQFLQAAERYGINTTDIFQTVDLWEGKNMACVQRTLMNLGGLAVARDDGLFSGDPNWFPKKSKENPRNFSDNQLQEGKNVIGLQMGTNRGASQAGMTGYGMPRQIL [TAGLN2]
50.9

Give melting temperature (HeLa Kyoto) of the following sequence: MANRTVKDAHSIHGTNPQYLVEKIIRTRIYESKYWKEECFGLTAELVVDKAMELRFVGGVYGGNIKPTPFLCLTLKMLQIQPEKDIIVEFIKNEDFKYVRMLGALYMRLTGTAIDCYKYLEPLYNDYRKIKSQNRNGEFELMHVDEFIDELLHSERVCDIILPRLQKRYVLEEAEQLEPRVSALEEDMDDVESSEEEEEEDEKLERVPSPDHRRRSYRDLDKPRRSPTLRYRRSRSRSPRRRSRSPKRRSPSPRRERHRSKSPRRHRSRSRDRRHRSRSKSPGHHRSHRHRSHSKSPERSKKSHKKSRRGNE [PRPF38A]
49

Give melting temperature (HeLa Kyoto) of the following sequence: MGLFGKTQEKPPKELVNEWSLKIRKEMRVVDRQIRDIQREEEKVKRSVKDAAKKGQKDVCIVLAKEMIRSRKAVSKLYASKAHMNSVLMGMKNQLAVLRVAGSLQKSTEVMKAMQSLVKIPEIQATMRELSKEMMKAGIIEEMLEDTFESMDDQEEMEEEAEMEIDRILFEITAGALGKAPSKVTDALPEPEPPGAMAASEDEEEEEEALEAMQSRLATLRS [CHMP3]
51.4

Give melting temperature (HeLa Kyoto) of the following sequence: MNQEKLAKLQAQVRIGGKGTARRKKKVVHRTATADDKKLQSSLKKLAVNNIAGIEEVNMIKDDGTVIHFNNPKVQASLSANTFAITGHAEAKPITEMLPGILSQLGADSLTSLRKLAEQFPRQVLDSKAPKPEDIDEEDDDVPDLVENFDEASKNEAN [BTF3L4]
56.3

Give melting temperature (HeLa Kyoto) of the following sequence: MVEDELALFDKSINEFWNKFKSTDTSCQMAGLRDTYKDSIKAFAEKLSVKLKEEERMVEMFLEYQNQISRQNKLIQEKKDNLLKLIAEVKGKKQELEVLTANIQDLKEEYSRKKETISTANKANAERLKRLQKSADLYKDRLGLEIRKIYGEKLQFIFTNIDPKNPESPFMFSLHLNEARDYEVSDSAPHLEGLAEFQENVRKTNNFSAFLANVRKAFTATVYN [SPC25]
49.5

Give melting temperature (HeLa Kyoto) of the following sequence: MAALAPLPPLPAQFKSIQHHLRTAQEHDKRDPVVAYYCRLYAMQTGMKIDSKTPECRKFLSKLMDQLEALKKQLGDNEAITQEIVGCAHLENYALKMFLYADNEDRAGRFHKNMIKSFYTASLLIDVITVFGELTDENVKHRKYARWKATYIHNCLKNGETPQAGPVGIEEDNDIEENEDAGAASLPTQPTQPSSSSTYDPSNMPSGNYTGIQIPPGAHAPANTPAEVPHSTGVASNTIQPTPQTIPAIDPALFNTISQGDVRLTPEDFARAQKYCKYAGSALQYEDVSTAVQNLQKALKLLTTGRE [VTA1]
50.9

Give melting temperature (HeLa Kyoto) of the following sequence: MAFRQALQLAACGLAGGSAAVLFSAVAVGKPRAGGDAEPRPAEPPAWAGGARPGPGVWDPNWDRREPLSLINVRKRNVESGEEELASKLDHYKAKATRHIFLIRHSQYHVDGSLEKDRTLTPLGREQAELTGLRLASLGLKFNKIVHSSMTRAIETTDIISRHLPGVCKVSTDLLREGAPIEPDPPVSHWKPEAVQYYEDGARIEAAFRNYIHRADARQEEDSYEIFICHANVIRYIVCRALQFPPEGWLRLSLNNGSITHLVIRPNGRVALRTLGDTGFMPPDKITRS [PGAM5]
52.8

Give melting temperature (HeLa Kyoto) of the following sequence: MHRGVGPAFRVVRKMAASGAEPQVLVQYLVLRKDLSQAPFSWPAGALVAQACHAATAALHTHRDHPHTAAYLQELGRMRKVVLEAPDETTLKELAETLQQKNIDHMLWLEQPENIATCIALRPYPKEEVGQYLKKFRLFK [PTRHD1]
55.6

Give melting temperature (HeLa Kyoto) of the following sequence: MTEADVNPKAYPLADAHLTKKLLDLVQQSCNYKQLRKGANEATKTLNRGISEFIVMAADAEPLEIILHLPLLCEDKNVPYVFVRSKQALGRACGVSRPVIACSVTIKEGSQLKQQIQSIQQSIERLLV [SNU13]
54.6

Give melting temperature (HeLa Kyoto) of the following sequence: MSAAGLLAPAPAQAGAPPAPEYYPEEDEELESAEDDERSCRGRESDEDTEDASETDLAKHDEEDYVEMKEQMYQDKLASLKRQLQQLQEGTLQEYQKRMKKLDQQYKERIRNAELFLQLETEQVERNYIKEKKAAVKEFEDKKVELKENLIAELEEKKKMIENEKLTMELTGDSMEVKPIMTRKLRRRPNDPVPIPDKRRKPAPAQLNYLLTDEQIMEDLRTLNKLKSPKRPASPSSPEHLPATPAESPAQRFEARIEDGKLYYDKRWYHKSQAIYLESKDNQKLSCVISSVGANEIWVRKTSDSTKMRIYLGQLQRGLFVIRRRSAA [SUDS3]
49

Give melting temperature (HeLa Kyoto) of the following sequence: MDGTRTSLDIEEYSDTEVQKNQVLTLEEWQDKWVNGKTAFHQEQGHQLLKKHLDTFLKGKSGLRVFFPLCGKAVEMKWFADRGHSVVGVEISELGIQEFFTEQNLSYSEEPITEIPGTKVFKSSSGNISLYCCSIFDLPRTNIGKFDMIWDRGALVAINPGDRKCYADTMFSLLGKKFQYLLCVLSYDPTKHPGPPFYVPHAEIERLFGKICNIRCLEKVDAFEERHKSWGIDCLFEKLYLLTEK [TPMT]
54

Give melting temperature (HeLa Kyoto) of the following sequence: MLSALARPASAALRRSFSTSAQNNAKVAVLGASGGIGQPLSLLLKNSPLVSRLTLYDIAHTPGVAADLSHIETKAAVKGYLGPEQLPDCLKGCDVVVIPAGVPRKPGMTRDDLFNTNATIVATLTAACAQHCPEAMICVIANPVNSTIPITAEVFKKHGVYNPNKIFGVTTLDIVRANTFVAELKGLDPARVNVPVIGGHAGKTIIPLISQCTPKVDFPQDQLTALTGRIQEAGTEVVKAKAGAGSATLSMAYAGARFVFSLVDAMNGKEGVVECSFVKSQETECTYFSTPLLLGKKGIEKNLGIGKVSSFEEKMISDAIPELKASIKKGEDFVKTLK [MDH2]
56.9

----------
I'd appreciate it if you could supply solubility in G1/S (log2) values for the items below.
System: HeLa Kyoto
Experiment: solubility in G1/S (NP-40 vs SDS abundance) (log2 ratio); higher = more soluble
Conditions: cell cycle stage: G1/S
Kindly provide the number alone.

# input sequence: MVLLHVKRGDESQFLLQAPGSTELEELTVQVARVYNGRLKVQRLCSEMEELAEHGIFLPPNMQGLTDDQIEELKLKDEWGEKCVPSGGAVFKKDDIGRRNGQAPNEKMKQVLKKTIEEAKAIISKKQVEAGVCVTMEMVKDALDQLRGAVMIVYPMGLPPYDPIRMEFENKEDLSGTQAGLNVIKEAEAQLWWAAKELRRTKKLSDYVGKNEKTKIIAKIQQRGQGAPAREPIISSEEQKQLMLYYHRRQEELKRLEENDDDAYLNSPWADNTALKRHFHGVKDIKWRPR [C21ORF59] ; wanted: its solubility in G1/S (log2)
0.335

# input sequence: MAAFRDIEEVSQGLLSLLGANRAEAQQRRLLGRHEQVVERLLETQDGAEKQLREILTMEKEVAQSLLNAKEQVHQGGVELQQLEAGLQEAGEEDTRLKASLLQLTRELEELKEIEADLERQEKEVDEDTTVTIPSAVYVAQLYHQVSKIEWDYECEPGMVKGIHHGPSVAQPIHLDSTQLSRKFISDYLWSLVDTEW [SPC24] ; wanted: its solubility in G1/S (log2)
-0.0462
